Each record here notes measured log10 of koff.
Molecular target: ACE2 (human, UniProt Q9BYF1 18-740)
Sequence (Q9BYF1 18-740 limits assumed): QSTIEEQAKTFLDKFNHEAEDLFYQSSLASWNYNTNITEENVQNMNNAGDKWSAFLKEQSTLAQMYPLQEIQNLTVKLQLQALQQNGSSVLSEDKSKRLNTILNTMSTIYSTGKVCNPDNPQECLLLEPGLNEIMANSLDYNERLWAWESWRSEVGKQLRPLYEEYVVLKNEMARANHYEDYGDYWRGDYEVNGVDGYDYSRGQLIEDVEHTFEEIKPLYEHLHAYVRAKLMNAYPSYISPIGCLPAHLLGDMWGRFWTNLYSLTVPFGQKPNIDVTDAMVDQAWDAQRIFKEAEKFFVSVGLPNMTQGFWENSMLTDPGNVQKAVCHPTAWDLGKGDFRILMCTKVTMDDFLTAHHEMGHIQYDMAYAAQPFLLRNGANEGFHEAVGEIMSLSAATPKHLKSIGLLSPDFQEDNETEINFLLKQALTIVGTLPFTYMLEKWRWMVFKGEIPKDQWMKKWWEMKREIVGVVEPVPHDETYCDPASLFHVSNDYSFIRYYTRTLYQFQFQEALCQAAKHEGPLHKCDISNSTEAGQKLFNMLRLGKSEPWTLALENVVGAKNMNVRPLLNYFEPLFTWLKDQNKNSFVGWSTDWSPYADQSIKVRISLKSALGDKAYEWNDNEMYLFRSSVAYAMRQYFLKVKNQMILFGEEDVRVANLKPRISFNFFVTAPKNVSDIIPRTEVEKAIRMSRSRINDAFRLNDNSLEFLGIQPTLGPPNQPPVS
ENDPOINT NAME: log10 of koff (log10 of the value in s⁻¹)

| BINDER | log10 of koff |
| --- | --- |
| ACE2 variant antibody 4-49 (VHH) VHH: EVQLVESGGGLVQPGGSLRLSCAASGRTFGDYIMGWFRQAPGKERESVAAINWSAGYTAYADSVKGRFTISADNSKNTAYLQMNSLKPEDTAVYYCARASPNTGWHFDHWGQGTLVTVSS | -3.01 |
| ACE2 variant antibody 4-33 (VHH) VHH: EVQLVESGGGLVQPGGSLRLSCAASGFTFSRHDMGWFRQAPGKEREFVAGINWESGSTNYADSVKGRFTISADNSKNTAYLQMNSLKPEDTAVYYCAADRGVYGGRWYRTSQYTWGQGTLVTVSS | -3.26 |
| ACE2 variant antibody 4-25 (VHH) VHH: EVQLVESGGGLVQPGGSLRLSCAASGGTFSRYAMGWFRQAPGKEREWVSAVDSGGSTYYADSVKGRFTISADNSKNTAYLQMNSLKPEDTAVYYCAASPSLRSAWQWGQGTLVTVSS | -2.52 |
| ACE2 variant antibody 4-75 (VHH) VHH: EVQLVESGGGLVQPGGSLRLSCAASGRTFGDDTMGWFRQAPGKEREFVAAINWTGGYTPYADSVKGRFTISADNSKNTAYLQMNSLKPEDTAVYYCATDPPLFWGQGTLVTVSS | -2.32 |
| ACE2 variant antibody 4-67 (VHH) VHH: EVQLVESGGGLVQPGGSLRLSCAASGRTFSDDTMGWFRQAPGKEREFVAAINWSGDSTYYADSVKGRFTISADNSKNTAYLQMNSLKPEDTAVYYCATDPPLFWGQGTLVTVSS | -2.67 |
| ACE2 variant antibody 4-62 (VHH) VHH: EVQLVESGGGLVQPGGSLRLSCAASGRTFSDDTMGWFRQAPGKEREFVAAINWSGGSTDYADSVKGRFTISADNSKNTAYLQMNSLKPEDTAVYYCATDPPLFWGQGTLVTVSS | -2.44 |
| ACE2 variant antibody 3-9 (antibody, V domains shown) VH: EVQLLESGGGLVQPGGSLRLSCAASGFTFRSYAMSWVRQAPGKGLEWVSSISGGGASTYYADSVKGRFTISRDNSKNTLYLQMNSLRAEDTAVYYCARVKYLTTSSGWPRPYFDNWGQGTLVTVSS VL: DIQMTQSPSSLSASVGDRVTITCRASQSIGKYLNWYQQKPGKAPKLLIYASSTLQRGVPSRFSGSGSGTDFTLTISSLQPEDFATYYCQQSFSTPFTFGQGTKVEIK | -2.24 |
